These data points were gathered from the Immune Epitope Database (IEDB).

Molecular target: HLA-B*15:01
Assay: IEDB peptide-MHC binding, purified MHC/direct/fluorescence; filed as Kd, often an IC50 or EC50 that approximates it; bounds were set here for any values at or beyond the usual limits of such assays
Conditions: source organism: Brucella abortus
Result Type: pKd
Scale note: pKd = -log10(concentration in M).

Just so you know, measured pKd for VQGPGGSTY came out at 6.72

###

Biological target: HLA-A*02:03
Assay: IEDB peptide-MHC binding, purified MHC/competitive/radioactivity; filed as Kd, often an IC50 or EC50 that approximates it; bounds were set here for any values at or beyond the usual limits of such assays
Conditions: source organism: Dengue virus 3 Sri Lanka/1266/2000
Result Type: pKd
Scale note: pKd = -log10(concentration in M).

Just so you know, measured pKd for SLCLMMILPA came out at 7.71

###

Target: HLA-A*02:01
Test: IEDB peptide-MHC binding, purified MHC/direct/fluorescence; filed as Kd, often an IC50 or EC50 that approximates it; bounds were set here for any values at or beyond the usual limits of such assays
Details: source organism: Campylobacter jejuni
Result Type: Kd (µM)
Write the number in µM without appending the unit.

VFKVKLHEI tested on HLA-A*02:01 gave Kd: 18.5

###

Target: HLA-A*68:23
Assay: IEDB peptide-MHC binding, purified MHC/competitive/fluorescence; filed as Kd, often an IC50 or EC50 that approximates it; bounds were set here for any values at or beyond the usual limits of such assays
Conditions: source organism: Salmonella enterica subsp. enterica serovar Typhi
Result Type: pKd
Scale note: pKd = -log10(concentration in M).

Just so you know, measured pKd for STFDLYVYR came out at 7.86

###

Target: HLA-A*02:11
Assay: IEDB peptide-MHC binding, purified MHC/competitive/fluorescence; filed as Kd, often an IC50 or EC50 that approximates it; bounds were set here for any values at or beyond the usual limits of such assays
Settings: source organism: Salmonella enterica subsp. enterica serovar Typhi
Result Type: pKd
Scale note: pKd = -log10(concentration in M).

Just so you know, measured pKd for NTDEIPELI came out at 8.51

###

Biological target: HLA-A*69:01
Assay: IEDB peptide-MHC binding, purified MHC/direct/fluorescence; filed as Kd, often an IC50 or EC50 that approximates it; bounds were set here for any values at or beyond the usual limits of such assays
Conditions: source organism: Francisella tularensis subsp. holarctica LVS
Result Type: Kd

Just so you know, measured Kd for EFKQILTDF came out at ≥ 20 µM

###

Molecular target: HLA-A*31:01
Experiment: IEDB peptide-MHC binding, purified MHC/direct/fluorescence; filed as Kd, often an IC50 or EC50 that approximates it; bounds were set here for any values at or beyond the usual limits of such assays
Conditions: source organism: Pseudomonas aeruginosa UCBPP-PA14
Result Type: Kd

ANPGRVKDW tested on HLA-A*31:01 gave Kd: ≥ 20 µM

###

Target: HLA-B*15:42
Experiment: IEDB peptide-MHC binding, purified MHC/competitive/fluorescence; filed as Kd, often an IC50 or EC50 that approximates it; bounds were set here for any values at or beyond the usual limits of such assays
Conditions: source organism: Yersinia pestis Nepal516
Result Type: Kd

MPAIFFSIV: ≥ 5 µM

From here, focus on the item given below.
Just so you know, measured Kd for AEYLYADGI came out at ≥ 5 µM

###

Target: HLA-A*02:11
Assay: IEDB peptide-MHC binding, purified MHC/direct/fluorescence; filed as Kd, often an IC50 or EC50 that approximates it; bounds were set here for any values at or beyond the usual limits of such assays
Conditions: source organism: Mycobacterium tuberculosis F11
Result Type: Kd (nM)
Write the number in nM without appending the unit.

Just so you know, measured Kd for FLFGDDDAL came out at 3

###

Target: HLA-A*23:01
Assay: IEDB peptide-MHC binding, purified MHC/competitive/radioactivity; filed as Kd, often an IC50 or EC50 that approximates it; bounds were set here for any values at or beyond the usual limits of such assays
Details: source organism: Dengue virus 4 Philippines/H241/1956
Result Type: pKd
Scale note: pKd = -log10(concentration in M).

TWMDLLRALI tested on HLA-A*23:01 gave pKd: 7.66

SWILRNPGF tested on HLA-A*23:01 gave pKd: 6.30

VFGSVYTTMF tested on HLA-A*23:01 gave pKd: 7.24

###

Biological target: HLA-A*30:01
Experiment: IEDB peptide-MHC binding, purified MHC/competitive/radioactivity; filed as Kd, often an IC50 or EC50 that approximates it; bounds were set here for any values at or beyond the usual limits of such assays
Settings: source organism: Dengue virus 3 Martinique/1243/1999
Items are presented alongside their recorded Kd.
Write the number in nM without appending the unit.

Examples with answers:
AVSRGSAKLQ: 1290
KVRTNAAMG: 11.3
ITTDSRCPTQ: 866

Just so you know, measured Kd for AWRTATLIL came out at 592

###

Molecular target: HLA-A*68:01
Experiment: IEDB peptide-MHC binding, purified MHC/competitive/radioactivity; filed as Kd, often an IC50 or EC50 that approximates it; bounds were set here for any values at or beyond the usual limits of such assays
Conditions: source organism: Lymphocytic choriomeningitis virus (strain WE)
Result Type: pKd
Scale note: pKd = -log10(concentration in M).

Just so you know, measured pKd for SRILFAQEK came out at 5.13

###

Items are presented alongside their recorded pKd.
Biological target: HLA-A*03:01
Assay: IEDB peptide-MHC binding, purified MHC/direct/fluorescence; filed as Kd, often an IC50 or EC50 that approximates it; bounds were set here for any values at or beyond the usual limits of such assays
Settings: source organism: Vibrio vulnificus
pKd: −log10 of the molar value.

EEVWRDPYL: ≤ 4.70

From here, focus on the item given below.
Just so you know, measured pKd for QSDIAGAIH came out at ≤ 4.70

###

Molecular target: HLA-B*45:01
Assay: IEDB peptide-MHC binding, purified MHC/competitive/radioactivity; filed as Kd, often an IC50 or EC50 that approximates it; bounds were set here for any values at or beyond the usual limits of such assays
Conditions: source organism: Variola virus
Result Type: pKd
Scale note: pKd = -log10(concentration in M).

Just so you know, measured pKd for TEYDGHINL came out at 6.41

###

Target: HLA-A*02:19
Assay: IEDB peptide-MHC binding, purified MHC/direct/fluorescence; filed as Kd, often an IC50 or EC50 that approximates it; bounds were set here for any values at or beyond the usual limits of such assays
Conditions: source organism: Orthohantavirus tulaense
pKd: −log10 of the molar value.
Result Type: pKd

Just so you know, measured pKd for FGAAVSLLF came out at ≤ 4.70

###

Molecular target: HLA-A*31:01
Test: IEDB peptide-MHC binding, purified MHC/direct/fluorescence; filed as Kd, often an IC50 or EC50 that approximates it; bounds were set here for any values at or beyond the usual limits of such assays
Details: source organism: SARS-CoV1
Result Type: Kd (nM)
Write the number in nM without appending the unit.

Just so you know, measured Kd for AVDPAKAYK came out at 293

###

Target: HLA-B*44:02
Experiment: IEDB peptide-MHC binding, purified MHC/competitive/radioactivity; filed as Kd, often an IC50 or EC50 that approximates it; bounds were set here for any values at or beyond the usual limits of such assays
Conditions: source organism: Mammarenavirus machupoense
Result Type: Kd (µM)
Write the number in µM without appending the unit.

AENVIVGLV: 0.142
KEPQKPLVL: 18
GDEALTGFL: 13.8

From here, focus on the item given below.
Just so you know, measured Kd for QEKAPDVGEL came out at 2.34

###

Molecular target: HLA-A*26:01
Test: IEDB peptide-MHC binding, purified MHC/competitive/fluorescence; filed as Kd, often an IC50 or EC50 that approximates it; bounds were set here for any values at or beyond the usual limits of such assays
Conditions: source organism: Vibrio vulnificus CMCP6
Result Type: Kd

Just so you know, measured Kd for LEMNDAPTA came out at ≥ 20 µM

###

Biological target: HLA-B*40:02
Test: IEDB peptide-MHC binding, purified MHC/competitive/fluorescence; bounds were set here for any values at or beyond the usual limits of such assays
Conditions: source organism: Homo sapiens
Result Type: IC50

YFYYNAFHWAI tested on HLA-B*40:02 gave IC50: ≥ 20 µM

###

Molecular target: HLA-B*07:02
Assay: IEDB peptide-MHC binding, purified MHC/competitive/fluorescence; filed as Kd, often an IC50 or EC50 that approximates it; bounds were set here for any values at or beyond the usual limits of such assays
Details: source organism: Yersinia pestis Nepal516
Result Type: Kd (nM)
Write the number in nM without appending the unit.

MPAIFFSIV: 84.1

From here, focus on the item given below.
RAMKALSSI tested on HLA-B*07:02 gave Kd: 12.6

###

Biological target: HLA-A*31:01
Assay: IEDB peptide-MHC binding, purified MHC/direct/fluorescence; filed as Kd, often an IC50 or EC50 that approximates it; bounds were set here for any values at or beyond the usual limits of such assays
Conditions: source organism: Yersinia pestis
Result Type: Kd

Just so you know, measured Kd for STFAASGPF came out at ≥ 20 µM
